Value source: ChEMBL document CHEMBL3351235

- method-description: Cytotoxicity against human HCT116 cells at 0.2 uM after 48 hrs by MTT assay relative to untreated control
- test-settings: hct-116, 48 h
recorded-endpoint: INH (%)
// units = %; emit number, no label

Here is how some compounds turned out for INH.
{"columns": ["compound", "INH [%]"],
 "data": [
  ["O=C1C(=O)N(CC(CO)NCCCNc2ccnc3cc(Cl)ccc23)c2ccc(Cl)cc21 (stereo not drawn)", 0],
  ["O=C1C(=O)N(CC(CO)NCCNc2ccnc3cc(Cl)ccc23)c2ccc(Cl)cc21 (stereo not drawn)", 0],
  ["O=C1C(=O)N(CC(CO)NCCNc2ccnc3cc(Cl)ccc23)c2ccccc21 (stereo not drawn)", 0],
  ["O=C1C(=O)N(CC(CO)NCCCNc2ccnc3cc(Cl)ccc23)c2ccc(F)cc21 (stereo not drawn)", -2],
  ["COc1cccc2c1C(=O)c1c(O)c3c(c(O)c1C2=O)C[C@@](O)(C(=O)CO)C[C@@H]3O[C@H]1C[C@H](N)[C@H](O)[C@H](C)O1", 84]
]}

Which measured INH value corresponds to O=C1C(=O)N(CC(CO)NCCCCNc2ccnc3cc(Cl)ccc23)c2ccc(F)cc21 (stereo not drawn) ? -1

Another: O=C1C(=O)N(CC(CO)NCCCNc2ccnc3cc(Cl)ccc23)c2ccccc21 (stereo not drawn) 2

Entry to check: O=C1C(=O)N(CC(CO)NCCCCNc2ccnc3cc(Cl)ccc23)c2ccccc21 (stereo not drawn) 0

---

- method-description: Cytotoxicity against human HCT116 cells at 2 uM after 48 hrs by MTT assay relative to untreated control
- test-settings: hct-116, 48 h
Catalogue of INH readings, one per entry.
Provide the reading as a plain figure in %.

For COc1cccc2c1C(=O)c1c(O)c3c(c(O)c1C2=O)C[C@@](O)(C(=O)CO)C[C@@H]3O[C@H]1C[C@H](N)[C@H](O)[C@H](C)O1 , what is its reported INH? 79

Do the same for O=C1C(=O)N(CC(CO)NCCCCNc2ccnc3cc(Cl)ccc23)c2ccccc21 (stereo not drawn) please -5

Consider next the compound O=C1C(=O)N(CC(CO)NCCCNc2ccnc3cc(Cl)ccc23)c2ccc(Cl)cc21 (stereo not drawn) in the same way. 2

What would you report for O=C1C(=O)N(CC(CO)NCCCCNc2ccnc3cc(Cl)ccc23)c2ccc(F)cc21 (stereo not drawn) ? 0

Could you do the same for O=C1C(=O)N(CC(CO)NCCNc2ccnc3cc(Cl)ccc23)c2ccccc21 (stereo not drawn) , please? 2

Another compound to look at: O=C1C(=O)N(CC(CO)NCCCNc2ccnc3cc(Cl)ccc23)c2ccccc21 (stereo not drawn) -12

Proceed to O=C1C(=O)N(CC(CO)NCCCNc2ccnc3cc(Cl)ccc23)c2ccc(F)cc21 (stereo not drawn) 12

Consider next the compound O=C1C(=O)N(CC(CO)NCCNc2ccnc3cc(Cl)ccc23)c2ccc(Cl)cc21 (stereo not drawn) in the same way. -11
